Tested on: MOLM-13 cells
protocol_text: MOLM-13 Cell Proliferation Assay (indicator of DHODH inhibition)
Type: cell-based
test_context: Homo sapiens, 72 Hours of culture, CellTiter-Glo, no uridine
Note to self: use criterion met only for IC50 readings below 7 nM; a reading exactly at 7 nM still gets criterion not met.

Past entries and their recorded results:
// query Please indicate whether the reported IC50 of C[C@@H]1CN(c2ncc([C@H]3c4[nH]c5ccc(Cl)cc5c4CCN3c3nc(C(F)(F)F)cc(C(F)(F)F)n3)cn2)C[C@H](C)N1 [Compound 503] is strictly below 7 nM.
// result criterion not met

// query Consider the molecule Cc1ccc(C2c3[nH]c4ccc(Cl)cc4c3CCN2c2nc(C)cc(C#N)n2)cc1 (stereo not shown) [Compound 379] . Is its IC50 strictly less than 7 nM?
// result criterion met

// query Take the molecule FC(F)(F)c1cc(C(F)(F)F)nc(N2CCc3c([nH]c4ccc(-n5nccn5)cc34)C2c2cnc(N3CCOCC3)nc2)n1 (stereo not shown) [Compound 482] and say whether its IC50 is less than 7 nM.
// result criterion met

// query Say whether its IC50 is strictly beneath 7 nM. Entry: Cc1ccc([C@@H]2c3[nH]c4ccc(Cl)c(F)c4c3CCN2c2nc(C)c(F)c(C)n2)c(F)c1F [Compound 190]
// result criterion not met

// query Lab note: confirm whether the reported IC50 for this molecule is below 7 nM, equality not counting. molecule: FC(F)(F)c1nc(N2CCOCC2)nc(N2CCc3c([nH]c4ccc(Cl)cc34)C2c2ccc(N3CCOCC3)nc2)n1 (stereo not shown) [Compound 428]
// result criterion met

// query Strictly below 7 nM: is that where IC50 of Cc1ccc(C2c3[nH]c4ccc(C)c(F)c4c3CCN2c2nccc(C(F)(F)F)n2)cc1 (stereo not shown) [Compound 174] sits?
// result criterion not met

// switching to the query molecule
// query Check if IC50 falls below 7 nM for FC(F)(F)c1ccnc(N2CCc3c([nH]c4ccc(-n5nccn5)cc34)C2c2ccc(N3CCOCC3)nc2)n1 (stereo not shown) [Compound 316] .
// result criterion met

###

Test system: MOLM-13 cells
protocol_text: MOLM-13 Cell Proliferation Assay (indicator of DHODH inhibition)
Format: cell-based
test_context: Homo sapiens, 72 Hours of culture, CellTiter-Glo, no uridine
Categories are assigned from the measured IC50 using these intervals: low bracket: < 6 nM; middle bracket: ≥ 6 nM and < 20 nM; high bracket: ≥ 20 nM

Consider the following illustrative entries.
// query The entry to classify is Cc1ccc(C2c3[nH]c4ccc(F)cc4c3CCN2c2ncnc(C(F)(F)F)n2)c(F)c1F (stereo not drawn) ; which class holds it?
// result middle bracket

// query Kindly state the category for this compound: Oc1cc2[nH]c3c(c2cc1Cl)CCN(c1nccc(C(F)(F)F)n1)C3c1ccc(Cl)cc1 (stereo not drawn)
// result high bracket

// query Class (by measured IC50) for Cc1nc(C)nc(N2CCc3c([nH]c4ccc(Cl)cc34)C2c2ccc(Br)c(F)c2F)n1 (stereo not drawn)
// result low bracket

// query Which class holds Cc1ccc(C2c3[nH]c4cc(F)c(Cl)cc4c3CCN2c2nc(C)cc(C)n2)cc1 (stereo not drawn) ?
// result middle bracket

// query Determine which band this compound sits in: N#Cc1ccnc(N2CCc3c([nH]c4cc(F)c(Cl)cc34)C2c2ccc(C(F)(F)F)cc2)n1 (stereo not drawn)
// result high bracket

Next:
// query Given `FC(F)(F)c1nc(N2CCOCC2)nc(N2CCc3c([nH]c4ccc(Cl)cc34)[C@@H]2c2ccc(N3CCOCC3)nc2)n1` , name the class its IC50 places it in.
// result low bracket

// query Band assignment needed for FC(F)(F)c1nc(N2CCc3c([nH]c4ccc(Cl)cc34)C2c2ccc(N3CCOCC3)nc2)nc(C(F)(F)F)n1 (stereo not drawn) please.
// result low bracket

###

System: MOLM-13 cells
protocol_text: MOLM-13 Cell Proliferation Assay (indicator of DHODH inhibition)
Format: cell-based
test_context: Homo sapiens, 72 Hours of culture, CellTiter-Glo, no uridine
Experimental: The following assay was conducted to measure proliferation of MOLM-13 cells in the presence of each compound studied. […] On day 1, Log-phase growing Molm-13 Cells were counted and diluted to 10^5 cells/mL in RPMI 1640 medium+10% FBS • 3. […] The plates were then read by ViewLux (Speed-fast, Gain-High, Bining-1X, 5 seconds).
endpoint: pIC50
Answers are plain numbers, as −log10 of the molar value.

// query # lookup: pIC50 of Fc1ccc(C2c3[nH]c4cc(F)c(Cl)cc4c3CCN2c2ncc(C(F)(F)F)cn2)cc1 (stereo not drawn) [Compound 98]
// result 7.38

// query Entry Cc1nc(C)nc(N2CCc3c([nH]c4ccc(Cl)cc34)C2c2cnc(N3CCOCC3)nc2)n1 (stereo not drawn) [Compound 293] : reported pIC50 = ?
// result 7.89

// query Which pIC50 value is on record for C[C@H]1CN(c2ncc([C@H]3c4[nH]c5ccc(Cl)cc5c4CCN3c3nc(C(F)(F)F)cc(C(F)(F)F)n3)cn2)CCN1 [Compound 517] ?
// result 8.49

// query # query: pIC50 of entry Cc1nc(N2CCc3c([nH]c4cc(F)c(Cl)cc34)C2c2ccc(CCCCO)cc2)nc(C)c1F (stereo not drawn) [Compound 249]
// result 8.66

// query Look at this molecule and give its reported pIC50. FC(F)(F)c1cc(C(F)(F)F)nc(N2CCc3c([nH]c4ccc(-n5nccn5)cc34)C2c2ccc(N3CCOCC3)nc2)n1 (stereo not drawn) [Compound 454]
// result 9.15

I have 8 molecules here; please give me pIC50 for each one.
1. N#Cc1ccnc(N2CCc3c([nH]c4ccc(Cl)cc34)C2c2ccc(N3CCOCC3)nc2)n1 (stereo not drawn) [Compound 356]
2. Cc1ncc(C2c3[nH]c4cc(F)c(Cl)cc4c3CCN2c2nccc(C(F)(F)F)n2)cn1 (stereo not drawn) [Compound 92]
3. Fc1cc(-n2ccnc2)ccc1C1c2[nH]c3ccc(Cl)cc3c2CCN1c1nccc(C(F)(F)F)n1 (stereo not drawn) [Compound 275]
4. Cc1ccnc(N2CCc3c([nH]c4cc(F)c(Cl)cc34)C2c2cnc(N(C)C)nc2)n1 (stereo not drawn) [Compound 94]
5. Cc1ccc(C2c3[nH]c4ccc(Br)cc4c3CCN2c2nccc(C(F)(F)F)n2)cc1 (stereo not drawn) [Compound 264]
6. Cc1ccc([C@H]2c3[nH]c4ccc(Cl)cc4c3CCN2c2nc(C)c(F)c(C)n2)c(F)c1F [Compound 412]
7. FC(F)(F)c1nc(N2CCOCC2)nc(N2CCc3c([nH]c4ccc(Cl)cc34)[C@@H]2c2cnc(N3CCOCC3)nc2)n1 [Compound 445]
8. FC(F)(F)c1ccnc(N2CCc3c([nH]c4ccc(Cl)cc34)C2c2ccc(Cl)cc2)n1 (stereo not drawn) [Compound 349]

// result
1: 8.34; 2: 7.46; 3: 8.14; 4: 7.65; 5: 9.05; 6: 9.00; 7: 8.28; 8: 8.52

Your task in this section: give pIC50 for each listed record.
1. Cc1nc(N2CCc3c([nH]c4ccc(Cl)cc34)C2c2cnc(N3CCOCC3)nc2)nc(C(F)(F)F)n1 (stereo not drawn) [Compound 440]
2. Cc1nc(C)nc(N2CCc3c([nH]c4ccc(Cl)cc34)[C@@H]2c2ccc(C)c(F)c2F)n1 [Compound 347]

// result
[8.68, 8.96]

###

For each record, write down the corresponding log10 IC50.
Tested on: MOLM-13 cells
protocol_text: MOLM-13 Cell Proliferation Assay (indicator of DHODH inhibition)
Assay type: cell-based
test_context: Homo sapiens, 72 Hours of culture, CellTiter-Glo, no uridine
Record value = log10 of IC50 given in nM.

// query Requested field: log10 IC50. Item: `CN1CCN(c2nc(N3CCc4c([nH]c5ccc(Cl)cc45)[C@@H]3c3cnc(N4CCOCC4)nc3)nc(C(F)(F)F)n2)CC1`
// result 0.98

// query Entry under review: `Cc1ccc([C@H]2c3[nH]c4ccc(Cl)cc4c3CCN2c2nc(C#N)cc(C(F)(F)F)n2)cc1` . Reported log10 IC50?
// result 0.08

// query Entry under review: Cc1ccc(C2c3[nH]c4cc(F)c(Cl)cc4c3CCN2c2ncc(F)cn2)cc1 (stereo not shown) . Reported log10 IC50?
// result 1.58

// query log10 IC50 for N#Cc1ccc(C2c3[nH]c4ccc(Cl)cc4c3CCN2c2nccc(C(F)(F)F)n2)cc1 (stereo not shown) ?
// result 0.68

// query Quick one: log10 IC50 for CN(C)c1ccc2[nH]c3c(c2c1)CCN(c1nccc(C(F)(F)F)n1)C3c1cnc(N2CCOCC2)nc1 (stereo not shown) ?
// result 1.55

Quick one: give me log10 IC50 for each item below, same order please.
1. OCCCc1ccc(C2c3[nH]c4cc(F)c(Cl)cc4c3CCN2c2nccc(C(F)(F)F)n2)cc1 (stereo not shown)
2. CN(C)c1ccc(C2c3[nH]c4cc(F)c(Cl)cc4c3CCN2c2ncc(F)cn2)cn1 (stereo not shown)

// result
0.60
1.51
